Tested System: CaCYP51 (Candida albicans)
Construct: made in house; host or cells: E. coli
Sequence (P10613 whole entry): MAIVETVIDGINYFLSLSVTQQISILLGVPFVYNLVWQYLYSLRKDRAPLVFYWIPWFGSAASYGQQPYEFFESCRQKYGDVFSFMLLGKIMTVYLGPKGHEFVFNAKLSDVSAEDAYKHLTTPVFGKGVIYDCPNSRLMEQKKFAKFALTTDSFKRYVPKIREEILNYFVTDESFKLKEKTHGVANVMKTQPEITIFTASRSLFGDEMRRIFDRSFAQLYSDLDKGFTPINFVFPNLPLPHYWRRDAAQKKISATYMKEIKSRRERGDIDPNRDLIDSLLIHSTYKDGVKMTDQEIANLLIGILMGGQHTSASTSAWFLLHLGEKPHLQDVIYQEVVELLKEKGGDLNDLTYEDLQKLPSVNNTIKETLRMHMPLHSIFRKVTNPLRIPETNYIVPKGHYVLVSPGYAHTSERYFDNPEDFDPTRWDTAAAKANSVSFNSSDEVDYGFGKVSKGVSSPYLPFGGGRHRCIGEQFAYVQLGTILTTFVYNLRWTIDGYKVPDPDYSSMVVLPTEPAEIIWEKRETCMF
Method Notes: CYP51 reconstitution assay, CaCYP51
Format: biochemical
Condition Parameters: 1 µM CaCYP51, 50 µM lanosterol; read-out: CaCYP51 IC50
Reported Endpoint: IC50

Any idea what IC50 was measured for CC(=O)N1CCN(c2ccc(NCC3COC(Cn4ccnc4)(c4ccc(Cl)cc4Cl)O3)cc2)CC1 (stereo not shown) ? ~900 nM

* * *

Tested System: human COX-2 (Homo sapiens)
Sequence (P35354 18-604): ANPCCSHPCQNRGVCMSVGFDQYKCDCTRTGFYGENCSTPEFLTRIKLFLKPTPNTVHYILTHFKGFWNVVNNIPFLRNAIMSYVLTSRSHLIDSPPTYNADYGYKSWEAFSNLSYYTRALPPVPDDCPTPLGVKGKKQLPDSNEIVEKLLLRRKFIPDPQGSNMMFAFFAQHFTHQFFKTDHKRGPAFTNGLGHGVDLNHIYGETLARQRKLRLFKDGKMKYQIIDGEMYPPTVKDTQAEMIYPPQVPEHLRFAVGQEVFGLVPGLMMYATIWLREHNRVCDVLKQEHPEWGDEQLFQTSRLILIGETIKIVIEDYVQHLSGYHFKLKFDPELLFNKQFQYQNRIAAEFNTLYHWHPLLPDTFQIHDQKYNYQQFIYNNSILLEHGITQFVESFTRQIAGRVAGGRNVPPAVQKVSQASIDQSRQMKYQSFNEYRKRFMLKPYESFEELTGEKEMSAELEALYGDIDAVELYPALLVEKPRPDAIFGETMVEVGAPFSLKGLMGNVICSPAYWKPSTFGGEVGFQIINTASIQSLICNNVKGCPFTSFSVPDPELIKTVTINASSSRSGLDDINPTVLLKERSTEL
Reported Endpoint: IC50

Request the reported IC50 associated with CC(=O)N1CCN(c2ccc(OCC3COC(Cn4ccnc4)(c4ccc(Cl)cc4Cl)O3)cc2)CC1 (stereo not drawn) [ketoconazole, reference compound] > 150 µM

Value lookup for IC50; key = CC(=O)N1CCN(c2ccc(NCc3ccc(-c4cccc(Cl)c4)o3)cc2)CC1 [Compound 13] > 150 µM

Name the recorded IC50 for Cc1cc(C2CCCCC2)n(O)c(=O)c1 [ciclopirox, reference compound] . > 150 µM
